tested.system: 5-hydroxytryptamine receptor 1A (Homo sapiens); further: assay procedure not described here
Sequence (P08908 whole entry): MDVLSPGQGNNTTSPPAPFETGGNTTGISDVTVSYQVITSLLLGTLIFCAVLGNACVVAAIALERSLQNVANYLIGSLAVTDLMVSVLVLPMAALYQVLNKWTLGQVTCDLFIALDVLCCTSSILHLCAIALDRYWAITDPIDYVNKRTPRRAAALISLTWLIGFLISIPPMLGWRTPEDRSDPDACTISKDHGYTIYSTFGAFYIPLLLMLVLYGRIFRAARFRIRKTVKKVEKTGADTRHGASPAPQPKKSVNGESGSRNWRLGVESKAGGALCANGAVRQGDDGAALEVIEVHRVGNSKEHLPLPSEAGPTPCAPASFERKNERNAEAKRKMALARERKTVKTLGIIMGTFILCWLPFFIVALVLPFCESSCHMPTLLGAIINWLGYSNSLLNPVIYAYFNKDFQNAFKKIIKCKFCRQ
Assay type: functional, cell-based
measured.endpoint: AC50

Worked cases, AC50 given:
{"compound": "CN1CC(=O)N2[C@H](c3ccc4c(c3)OCO4)c3[nH]c4ccccc4c3C[C@@H]2C1=O", "value.observed": "> 10 µM"}
{"compound": "CC(=O)OCC(=O)[C@@]12OC3(CCCC3)O[C@@H]1C[C@H]1[C@@H]3CCC4=CC(=O)C=C[C@]4(C)[C@@]3(F)[C@@H](O)C[C@@]12C [AMCINONIDE]", "value.observed": "> 10 µM"}
{"compound": "NC1=NC(=O)C(c2ccccc2)O1 (centres undefined)", "value.observed": "> 10 µM"}
{"compound": "CN1C(=O)COc2c(C(=O)NC3CN4CCC3CC4)cc(Cl)cc21 (centres undefined)", "value.observed": "> 30 µM"}
{"compound": "O=C1CN=C(c2ccccc2)c2cc(Cl)ccc2N1CC(F)(F)F", "value.observed": "> 30 µM"}

Quick batch: AC50 for everything below.
1. C1COC(NC(C2CC2)C2CC2)=N1
2. CN1CC[C@]23CCCC[C@H]2[C@H]1Cc1ccc(O)cc13

(A)
1. > 30 µM
2. > 10 µM

Quick batch: AC50 for everything below.
1. NC[C@H]1CC[C@H](C(=O)O)CC1
2. N/N=c1/cc2c(n[nH]1)CCN(C(=O)c1ccccc1)C2

(A)
> 10 µM
> 30 µM

---

Measured AC50 (Adenosine receptor A3 (Homo sapiens, UniProt P0DMS8))

Worked cases, AC50 given:
{"compound": "CCO/N=C(\\C(=O)N[C@@H]1C(=O)N2C(C(=O)[O-])=C(Sc3nc(-c4cc[n+](C)cc4)cs3)CS[C@H]12)c1nsc(N)n1", "AC50": "> 30 µM"}
{"compound": "Nc1nc(N)c2nc(-c3ccccc3)c(N)nc2n1", "AC50": "> 30 µM"}
{"compound": "O=C1CN=C(c2ccccc2)c2c(sc3c2CCCC3)N1", "AC50": "14.3 µM"}
{"compound": "NC(=O)c1cnccn1 [PYRAZINAMIDE]", "AC50": "> 30 µM"}

(Q) Which AC50 value is on record for "C[N+](C)(C)CCCCCCCCCC[N+](C)(C)C" ?
(A) > 30 µM

---

tested.system: Cholecystokinin receptor type A (Homo sapiens, UniProt P32238); further: assay procedure not described here
Sequence (P32238 whole entry): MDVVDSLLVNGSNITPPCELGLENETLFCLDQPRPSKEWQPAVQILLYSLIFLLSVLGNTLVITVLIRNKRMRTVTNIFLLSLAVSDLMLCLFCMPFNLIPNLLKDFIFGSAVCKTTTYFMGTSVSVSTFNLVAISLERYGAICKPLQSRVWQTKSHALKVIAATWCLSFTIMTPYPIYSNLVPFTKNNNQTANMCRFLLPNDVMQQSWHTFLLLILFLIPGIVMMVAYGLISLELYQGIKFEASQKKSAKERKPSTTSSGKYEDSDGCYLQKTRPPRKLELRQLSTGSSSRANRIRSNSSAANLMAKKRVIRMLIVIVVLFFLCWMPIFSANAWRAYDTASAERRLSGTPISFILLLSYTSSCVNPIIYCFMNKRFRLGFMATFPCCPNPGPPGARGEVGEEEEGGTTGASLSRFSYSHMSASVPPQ
measured.endpoint: AC50

{"compound": "CC(C)(C(=O)c1cccnc1)c1cccnc1", "AC50": "> 10 µM"}
{"compound": "CCOC(=O)[C@H](CCc1ccccc1)N[C@@H](C)C(=O)N1CCC[C@H]1C(=O)O", "AC50": "> 30 µM"}
{"compound": "N[C@@H](C(=O)N[C@@H]1C(=O)N2C(C(=O)O)=C(Cl)CS[C@H]12)c1ccccc1 [CEFACLOR ANHYDROUS]", "AC50": "> 30 µM"}

Quick batch: AC50 for everything below.
1. O=C1CN=C(c2ccccc2)c2cc(Cl)ccc2N1CC(F)(F)F
2. CC(C(=O)O)c1ccc(C(=O)c2cccs2)cc1 (centres undefined)
3. NC(=O)c1ncn([C@@H]2O[C@H](CO)[C@@H](O)[C@H]2O)c1O
4. CC(C)(N)Cc1ccc(Cl)cc1
5. CC(C)Cc1ccc(CC(=O)O)cc1
6. CCOC(=O)[C@H](CCc1ccccc1)N[C@H]1CCCN2CCC[C@@H](C(=O)O)N2C1=O

(A)
["> 30 µM", "> 10 µM", "> 30 µM", "> 30 µM", "> 30 µM", "> 30 µM"]
